target: T1, TRAIL (human, UniProt P50591 114-281); assay: ELISA on coated TRAIL, Fc-linked dimers; EC50 ratio to OPG(22-194).Fc wt; reduction in binding (higher EC50)
T1 construct: also called TNF-related apoptosis inducing ligand; recombinant human TRAIL (R&D Systems)
T1 sequence (P50591 114-281 limits assumed): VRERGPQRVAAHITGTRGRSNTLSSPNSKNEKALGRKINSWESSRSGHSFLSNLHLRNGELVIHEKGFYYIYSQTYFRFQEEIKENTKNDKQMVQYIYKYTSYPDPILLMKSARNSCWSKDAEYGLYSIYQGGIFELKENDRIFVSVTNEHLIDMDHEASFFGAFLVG
List of TRAIL fold change cf wt values.
State just the number; it will be interpreted in fold.

BINDER: OVP I115T, K51R, S167G (Fc fusion, Tested as C-terminal Fc-linked dimer with FLAG tag, from HEK 293 EBNA cells; signal peptide 1-21 processed; not shown: human Fc domain of vector pAPEX-3.Fc; C-terminal FLAG tag) ETFPPKYLHYDEETSHQLLCDKCPPGTYLRQHCTAKWKTVCAPCPDHYYTDSWHTSDECLYCSPVCKELQYVKQECNRTHNRVCECKEGRYLETEFCLKHRSCPPGFGVVQAGTPERNTVCKRCPDGFFSNETSSKAPCRKHTNCGVFGLLLTQKGNATHDNICSGNSESTQK
VALUE_UNITS: fold
TRAIL fold change cf wt: 15

The value of TRAIL fold change cf wt measured for the binder OVP I115L (Fc fusion, Tested as C-terminal Fc-linked dimer with FLAG tag, from HEK 293 EBNA cells; signal peptide 1-21 processed; not shown: human Fc domain of vector pAPEX-3.Fc; C-terminal FLAG tag) ETFPPKYLHYDEETSHQLLCDKCPPGTYLKQHCTAKWKTVCAPCPDHYYTDSWHTSDECLYCSPVCKELQYVKQECNRTHNRVCECKEGRYLELEFCLKHRSCPPGFGVVQAGTPERNTVCKRCPDGFFSNETSSKAPCRKHTNCSVFGLLLTQKGNATHDNICSGNSESTQK turned out to be 4.3

The value of TRAIL fold change cf wt measured for the binder OVP I115V (Fc fusion, Tested as C-terminal Fc-linked dimer with FLAG tag, from HEK 293 EBNA cells; signal peptide 1-21 processed; not shown: human Fc domain of vector pAPEX-3.Fc; C-terminal FLAG tag) ETFPPKYLHYDEETSHQLLCDKCPPGTYLKQHCTAKWKTVCAPCPDHYYTDSWHTSDECLYCSPVCKELQYVKQECNRTHNRVCECKEGRYLEVEFCLKHRSCPPGFGVVQAGTPERNTVCKRCPDGFFSNETSSKAPCRKHTNCSVFGLLLTQKGNATHDNICSGNSESTQK turned out to be 4

Just for reference, patent US20060189528A1 is where these values come from.
